# credit: patent US7268160B2

Below, each entry is listed alongside its reported activity at 50 µM.
System: NGF production in the L-M cells
Test: Enhancing activity for NGF production, Example 13 method (20 hours culture after addition)
Format: cell-based, murine
Settings: Mus musculus, added amount 50 μM, negative control = 100%, read-out: Enhancement Ratio (%)
Report the value in % with no unit label.

[[record]]
compound = "CNC[C@H](O)c1ccc(O)c(O)c1 [EN, epinephrine, reference compound]"
measurement_label = "activity at 50 µM"
measured = 137

[[record]]
compound = "O=C(/C=C/c1ccc(O)c(O)c1)c1ccccc1O [Compound (21), 3,4,2′-Trihydroxychalcone]"
measurement_label = "activity at 50 µM"
measured = 229

[[record]]
compound = "CC(=O)C=Cc1ccc(O)c(O)c1 [Compound (8), 4-(3,4-Dihydroxyphenyl)-3-buten-2-one]"
measurement_label = "activity at 50 µM"
measured = 375

[[record]]
compound = "O=C(/C=C/c1ccc(O)c(O)c1)c1ccc(O)c(O)c1O [Compound (22), 3,4,2′,3′,4′-Pentahydroxy chalcone]"
measurement_label = "activity at 50 µM"
measured = 124

[[record]]
compound = "O=C(/C=C/c1ccc(O)c(O)c1)c1ccc(O)c(O)c1 [Compound (19), 3,4,3′,4′-Tetrahydroxychalcone]"
measurement_label = "activity at 50 µM"
measured = 844

[[record]]
compound = "O=C(O)/C=C/c1ccc(O)c(O)c1 [CA, caffeic acid, reference compound]"
measurement_label = "activity at 50 µM"
measured = 165


Fill in activity at 50 µM for record O=C(/C=C/c1ccc(O)c(O)c1)c1cc(O)cc(O)c1 [Compound (20), 3,4,3′,5′-Tetrahydroxychalcone]
692
